assayProcedure: Pharmacokinetics in male Sprague Dawley rats following oral co-dosing
Assay type: in vivo
conditionsUsed: rat; male Sprague Dawley rats, oral gavage co-dose: rivaroxaban 5.45 mg/kg (data multiplied by 0.91) and Compound 101 5 mg/kg; plasma; read-out: Cmax
readout: Cmax (ng/mL)
Please reply with the bare figure in ng/mL and do not write the unit itself.

Determine from records and report Cmax for O=C(NC[C@H]1CN(c2ccc(N3CCOCC3=O)cc2)C(=O)O1)c1ccc(Cl)s1 [Rivaroxaban, reference compound] 842
